- method.notes: Pharmacokinetic experiment, oral capsules in Beagle dogs
- Type: in vivo
- particulars: dog, plasma, male Beagle dogs, 5 mg/kg
property.measured: AUC(0-t)
Put down the number, then write its unit next to it.

query: Which measured AUC(0-t) value corresponds to O=C(O)c1ccc2c(c1)Oc1ccc(OCc3c(-c4c(Cl)cccc4Cl)noc3C3CC3)nc1C1(CC1)C2 [Crystal form I] ?
result: 1020 ng·h/mL

---

- method.notes: Pharmacokinetic experiment, oral capsules in Beagle dogs
- Type: in vivo
- particulars: dog, plasma, male Beagle dogs, 5 mg/kg
property.measured: Cmax
Put down the number, then write its unit next to it.

query: Which measured Cmax value corresponds to O=C(O)c1ccc2c(c1)Oc1ccc(OCc3c(-c4c(Cl)cccc4Cl)noc3C3CC3)nc1C1(CC1)C2 [Crystal form I] ?
result: 389 ng/mL
